molecular target: EP3 receptor (Homo sapiens, UniProt P43115); construct: purchased Millipore HTS092M; experiment: [3H]-PGE2 binding assay (EP3 competition binding); details: read-out: [3H]-PGE2 Binding Ki
quantity-kind: Ki (µM)

P = CCn1ncc2c(F)cc(-c3ccc(C(/C=C4\CCNC4=O)(CC)CC)c(=O)[nH]3)cc21 [compound 13]
Q = CCn1ncc2c(F)cc(-c3ccc(C(CC)(CC)Cc4nnc[nH]4)c(=O)[nH]3)cc21
R = CCn1cnc2c(F)c(-c3ccc(C(C=C4OC(=O)NC4=O)C(C)C)c(=O)[nH]3)ccc21 (centres unmarked)
S = CCn1ncc2c(F)cc(-c3ccc(C(C(C)C)n4cnnn4)c(=O)[nH]3)cc21 (centres unmarked)
Please list the entries, largest Ki first. Put the labels in the requested order and write them down.
R, S, Q, P

A = NC(=O)C1(c2ccc(-c3ccc4ccccc4c3)[nH]c2=O)CCCC1
B = Cc1cc(C(CC2OC(=O)NC2=O)C(C)C)c(=O)[nH]c1-c1ccc2cccc(F)c2c1 (centres unmarked)
C = CCn1ncc2c(F)cc(-c3ccc(C(CC)(CC)c4nnn[nH]4)c(=O)[nH]3)cc21
Order these by Ki, descending, and give the full ranking. Put the labels in the requested order and write them down.
A, B, C

a = CC(C)C(F)(C(=O)NS(C)(=O)=O)c1ccc(-c2ccc3ccccc3c2)[nH]c1=O (centres unmarked)
b = CC(C)C(/C=C1/OC(=O)NC1=O)c1ccc(-c2ccc3cccc(C#N)c3c2)[nH]c1=O (centres unmarked)
From the items above, decide which of a and b has the lower Ki reading. Answer = label.
b

A = CC(C)C(/C=C1\OC(=O)NC1=O)c1ccc(-c2ccc3cccc(C(F)(F)F)c3c2)[nH]c1=O (centres unmarked)
B = CC(C)C(c1ccc(-c2ccc3cccc(F)c3c2)[nH]c1=O)n1cnc(N)n1 (centres unmarked)
C = CC(C)C(/C=C1\OC(=O)NC1=O)c1ccc(-c2cc(F)c3cnn(C4CCCC4)c3c2)[nH]c1=O (centres unmarked)
D = CCn1ncc2c(F)cc(-c3[nH]c(=O)c(C(CC)(CC)CC4=CCNC4=O)cc3F)cc21
Order these by Ki, descending, and give the full ranking. Put the labels in the requested order and write them down.
D, A, C, B

----------
Target: EP3 receptor (Homo sapiens)
Sequence (P43115 1-390): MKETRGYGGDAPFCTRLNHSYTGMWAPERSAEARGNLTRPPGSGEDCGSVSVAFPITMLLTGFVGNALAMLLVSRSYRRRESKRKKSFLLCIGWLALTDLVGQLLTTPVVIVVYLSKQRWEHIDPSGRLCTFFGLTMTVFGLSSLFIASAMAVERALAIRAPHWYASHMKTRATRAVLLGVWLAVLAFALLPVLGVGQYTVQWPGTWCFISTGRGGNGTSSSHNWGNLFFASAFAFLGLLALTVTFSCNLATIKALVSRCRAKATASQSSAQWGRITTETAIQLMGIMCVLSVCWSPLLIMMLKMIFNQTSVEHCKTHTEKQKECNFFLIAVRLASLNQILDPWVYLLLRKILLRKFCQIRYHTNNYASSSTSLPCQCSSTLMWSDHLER
Test: CHO cell cAMP assay (forskolin and sulprostone stimulated, HTRF)
Conditions: CHO cells; sulprostone 700 nM (EC80) and FSK 2 μM (EC70), 37° C. for 30 minutes; read-out: CHO_cAMP IC50
pIC50: −log10 of the molar value.
quantity-kind: pIC50

compound: CCn1ncc2c(Cl)cc(-c3ccc(C(/C=C4\OC(=O)NC4=O)C(C)C)c(=O)[nH]3)cc21 (stereo not shown)
pIC50: 7.12
//
compound: CCn1ncc2c(F)cc(-c3ccc(C4CCC5(CCCNC5=O)CC4)c(=O)[nH]3)cc21 (stereo not shown)
pIC50: 7.06
//
compound: CCn1ncc2c(F)cc(-c3ccc(C4CCN(S(=O)(=O)C(C)C)C4)c(=O)[nH]3)cc21 (stereo not shown)
pIC50: 6.55
//
compound: N#CC1(OC(N)=O)CCCC(c2ccc(-c3ccc4ccccc4c3)[nH]c2=O)C1 (stereo not shown)
pIC50: 6.50
//
compound: CCn1nc(C)c2ccc(-c3ccc(C(C=C4OC(=O)NC4=O)(CC)CC)c(=O)[nH]3)cc21
pIC50: 4.75
//
compound: CCn1ncc2c(F)cc(-c3ccc(C(CC)(CC)c4nnco4)c(=O)[nH]3)cc21
pIC50: 7.70

P = CC(C)C(/C=C1\OC(=O)NC1=O)c1ccc(-c2cc(Cl)c3c(c2)ncn3C)[nH]c1=O (stereo not shown)
Q = CC(C)C(F)(C(N)=O)c1ccc(-c2ccc3ccccc3c2)[nH]c1=O (stereo not shown)
R = CCn1ncc2c(F)cc(-c3ccc(C(CC)(CC)c4nnn[nH]4)c(=O)[nH]3)cc21
S = CC(C)C(c1ccc(-c2ccc3cccc(F)c3c2)[nH]c1=O)n1ccnc1N (stereo not shown)
T = CCn1ncc2c(F)cc(-c3ccc(C(Cc4noc(=O)[nH]4)C(C)C)c(=O)[nH]3)cc21 (stereo not shown)
Order these by pIC50, descending, and give the full ranking. Put the labels in the requested order and write them down.
S, R, P, Q, T
(S: 6.93, R: 6.46, P: 6.18, Q: 5.94, T: 5.31)

I = O=C1NC(=O)C(Cc2ccc(-c3ccc4cccc(F)c4c3)[nH]c2=O)O1 (stereo not shown)
II = O=c1[nH]c(-c2ccc3ccccc3c2)ccc1C1CCc2n[nH]cc2C1 (stereo not shown)
III = CC1(c2ccc(-c3ccc4ccccc4c3)[nH]c2=O)CNS(=O)(=O)N1 (stereo not shown)
IV = CC(C)/C(Cc1ccc(-c2ccc3cccc(F)c3c2)[nH]c1=O)=C1/OC(=O)NC1=O
V = CC(C)C(C(=O)NCCN(C)C)c1ccc(-c2ccc3ncsc3c2)[nH]c1=O (stereo not shown)
Order these by pIC50, descending, and give the full ranking. Put the labels in the requested order and write them down.
IV, II, I, III, V

----------
molecular target: EP3 receptor (Homo sapiens); construct: purchased Millipore HTS092M; assay: CHO cell cAMP assay (forskolin and sulprostone stimulated, HTRF); type: cell-based; conditions: CHO cells; sulprostone 700 nM (EC80) and FSK 2 μM (EC70), 37° C. for 30 minutes; read-out: CHO_cAMP IC50
quantity-kind: IC50 (µM)

compound: CC1(c2ccc(-c3ccc4ccccc4c3)[nH]c2=O)CNC(NS(C)(=O)=O)=N1 (stereo not shown)
measure-unit: µM
IC50: 1.91

1 = CC(C)C(c1nnn[nH]1)c1ccc(-c2ccc3ccccc3c2)[nH]c1=O (stereo not shown)
2 = CC(C)C(CC(=O)Nc1ncc[nH]1)c1ccc(-c2ccc3cccc(F)c3c2)[nH]c1=O (stereo not shown)
Short answer wanted: higher IC50, 1 or 2 ? Answer = label.
1
(1: 0.376 µM, 2: 0.024 µM)

a = O=C1NC(=O)C2(CCC(c3ccc(-c4ccc5ccccc5c4)[nH]c3=O)CC2)N1 (stereo not shown)
b = CCn1ncc2c(F)cc(-c3ccc(C4CCN(C(=O)CO)CC4)c(=O)[nH]3)cc21
Short answer wanted: higher IC50, a or b ? Answer = label.
a

P = NC(=O)C1(c2ccc(-c3ccc4ccccc4c3)[nH]c2=O)CCCC1
Q = CC(C)C(c1ccc(-c2ccc3cccc(F)c3c2)[nH]c1=O)N(C)C(N)=O (stereo not shown)
Short answer wanted: higher IC50, P or Q ? Answer = label.
P
(P: 4.07 µM, Q: 0.249 µM)

I = CCOC(=O)C(=C1CCCCC1)c1ccc(-c2ccc3ccccc3c2)[nH]c1=O
II = CC(C)C(C(=O)NS(=O)(=O)c1cc(Cl)c(Cl)s1)c1ccc(-c2ccc3cccc(F)c3c2)[nH]c1=O (stereo not shown)
III = CC(C)C1(Cc2ccc(-c3ccc4cccc(F)c4c3)[nH]c2=O)NC(=O)NC1=O (stereo not shown)
Order these by IC50, descending, and give the full ranking. Put the labels in the requested order and write them down.
I, III, II

A = CCn1ncc2c(F)cc(-c3ccc(C(CC)(CC)CC4OC(=O)NC4=O)c(=O)[nH]3)cc21 (stereo not shown)
B = O=C1NC(=O)[C@]2(CCC[C@H](c3ccc(-c4ccc5ccccc5c4)[nH]c3=O)C2)N1 (racemic)
Short answer wanted: higher IC50, A or B ? Answer = label.
A

1 = CCn1ncc2c(F)cc(-c3ccc(C(CC)(CC)c4ncc[nH]4)c(=O)[nH]3)cc21
2 = CC(C)C(O)(C(N)=O)c1ccc(-c2ccc3c(c2)OCCN3C)[nH]c1=O (stereo not shown)
3 = CCn1ncc2c(F)cc(-c3ccc(C(CN4CCS(=O)(=O)CC4)C(C)C)c(=O)[nH]3)cc21 (stereo not shown)
Ascending sort, IC50. Put the labels in the requested order and write them down.
3, 1, 2
(3: 0.235 µM, 1: 0.482 µM, 2: 4.57 µM)

----------
target: EP3 receptor (Homo sapiens); construct: purchased Millipore HTS092M; experiment: [3H]-PGE2 binding assay (EP3 competition binding); conditions: read-out: [3H]-PGE2 Binding Ki
pKi: −log10 of the molar value.
quantity-kind: pKi

compound: O=C1NC(=O)/C(=C/C(c2ccc(-c3ccc4cccc(F)c4c3)[nH]c2=O)C2CCCC2)O1 (stereo not shown)
pKi: 8.05

1 = CCN1CCOc2ccc(-c3ccc(C(C(C)C)N4CCSCC4)c(=O)[nH]3)cc21 (stereo not shown)
2 = CCC(CC)(c1nnc[nH]1)c1ccc(-c2ccc3c(F)cc(F)cc3c2)[nH]c1=O
3 = CC(C)C(C(=O)NC1CN(C)C1)c1ccc(-c2ccc3cccc(F)c3c2)[nH]c1=O (stereo not shown)
Order these by pKi, descending, and give the full ranking. Put the labels in the requested order and write them down.
1, 3, 2
